# target-system: Protein kinase C (PKC) (Homo sapiens) (UniProt O94806+P41743+P17252+P05129+Q05655+P05771+Q05513+Q02156+P24723+Q15139+Q04759)
# experiment-notes: Inhibition of Protein Kinase C purified from HL-60 cells
# Format: cell-free
Recorded ID50 determines the group label, using low = under 20 µM, intermediate = from 20 µM up to 30 µM, high = 30 µM and over

>>> class_name("CCCCCCCCCCCCCCCCSCC(C[N+](C)(C)CCO)OC (stereo not drawn)")
"intermediate"
>>> class_name("CCCCCCCCCCCCCCCCSCC(C[N+](C)(C)C)OC (stereo not drawn)")
"intermediate"
>>> class_name("CCCCCCCCCCCCCCCCCCSCC(C[N+](C)(C)CCCO)OC (stereo not drawn)")
"low"
>>> class_name("CCCCCCCCCCCCCCCCOCC(COCC[N+](C)(C)C)OC (stereo not drawn)")
"high"
>>> class_name("CCCCCCCCCCCCCCCCC[C@@H]1OC[C@@H](C[N+](C)(C)CCCO)O1")
"low"
>>> class_name("CCCCCCCCCCCCCCCCOCC(COCCO)OC (stereo not drawn)")
"intermediate"
>>> class_name("CCCCCCCCCCCCCCCCCCOCC(COP(=O)([O-])OCC[N+](C)(C)C)OC (stereo not drawn)")
"low"
>>> class_name("CCCCCCCCCCCCCCCCSCC(C[N+](C)(C)CCCO)OCC (stereo not drawn)")
"intermediate"
>>> class_name("CCCCCCCCCCCCCCCCCC1OCC(C[N+](C)(C)CCCO)O1 (stereo not drawn)")
"low"
>>> class_name("CCCCCCCCCCCCCCCCSCC(C[N+](C)(C)CCO)OCC (stereo not drawn)")
"high"
>>> class_name("CC1(C)OC[C@@H](C[N+](C)(C)CCO)O1")
"high"
>>> class_name("CCCCCCCCCCCCCCCCOCC(C[N+](C)(C)CCO)OC (stereo not drawn)")
"low"
>>> class_name("COC(COc1cccc2ccccc12)C[N+](C)(C)CCO (stereo not drawn)")
"high"

====

# target-system: Protein kinase C (PKC) (Homo sapiens) (UniProt O94806+P41743+P17252+P05129+Q05655+P05771+Q05513+Q02156+P24723+Q15139+Q04759)
# experiment-notes: Retained protein kinase C activity in the presence of 10 uM compound
# Type: functional
reported-property: Activity

>>> measured_value("CCCCCCCCCCCCCCCCOCC(COCC[N+](C)(C)C)OC (stereo not drawn)")
"73%"
>>> measured_value("CCCCCCCCCCCCCCCCCC1OCC(C[N+](C)(C)CCCO)O1 (stereo not drawn)")
"56%"
>>> measured_value("CC1(C)OC[C@@H](C[N+](C)(C)CCO)O1")
"88%"
>>> measured_value("CCCCCCCCCCCCCCCCOCC(C[N+](C)(C)CCO)OC (stereo not drawn)")
"64%"
>>> measured_value("CCCCCCCCCCCCCCCCCCSCC(C[N+](C)(C)CCCO)OC (stereo not drawn)")
"39%"
>>> measured_value("CCCCCCCCCCCCCCCCSCC(C[N+](C)(C)CCO)OCC (stereo not drawn)")
"70%"
>>> measured_value("CCCCCCCCCCCCCCCCSCC(C[N+](C)(C)CCO)OC (stereo not drawn)")
"60%"
>>> measured_value("CCCCCCCCCCCCCCCCOCC(COCCO)OC (stereo not drawn)")
"66%"
>>> measured_value("CCCCCCCCCCCCCCCCSCC(C[N+](C)(C)C)OC (stereo not drawn)")
"74%"
>>> measured_value("CCCCCCCCCCCCCCCCC[C@@H]1OC[C@@H](C[N+](C)(C)CCCO)O1")
"56%"
>>> measured_value("CCCCCCCCCCCCCCCCCCOCC(COP(=O)([O-])OCC[N+](C)(C)C)OC (stereo not drawn)")
"60%"
>>> measured_value("COC(COc1cccc2ccccc12)C[N+](C)(C)CCO (stereo not drawn)")
"89%"
>>> measured_value("CCCCCCCCCCCCCCCCSCC(C[N+](C)(C)CCCO)OCC (stereo not drawn)")
"60%"

====

# target-system: Protein kinase C (PKC) (Homo sapiens) (UniProt O94806+P41743+P17252+P05129+Q05655+P05771+Q05513+Q02156+P24723+Q15139+Q04759)
# experiment-notes: Retained protein kinase C activity in the presence of 5 uM compound
# Type: functional
reported-property: Activity (%)

>>> measured_value("COC(COc1cccc2ccccc12)C[N+](C)(C)CCO (stereo not drawn)")
83
>>> measured_value("CCCCCCCCCCCCCCCCOCC(COCC[N+](C)(C)C)OC (stereo not drawn)")
83
>>> measured_value("CCCCCCCCCCCCCCCCCCOCC(COP(=O)([O-])OCC[N+](C)(C)C)OC (stereo not drawn)")
73
>>> measured_value("CCCCCCCCCCCCCCCCC[C@@H]1OC[C@@H](C[N+](C)(C)CCCO)O1")
70
>>> measured_value("CCCCCCCCCCCCCCCCCC1OCC(C[N+](C)(C)CCCO)O1 (stereo not drawn)")
61
>>> measured_value("CCCCCCCCCCCCCCCCCCSCC(C[N+](C)(C)CCCO)OC (stereo not drawn)")
49
>>> measured_value("CCCCCCCCCCCCCCCCSCC(C[N+](C)(C)C)OC (stereo not drawn)")
81
>>> measured_value("CCCCCCCCCCCCCCCCSCC(C[N+](C)(C)CCCO)OCC (stereo not drawn)")
67
>>> measured_value("CCCCCCCCCCCCCCCCOCC(C[N+](C)(C)CCO)OC (stereo not drawn)")
87
>>> measured_value("CCCCCCCCCCCCCCCCSCC(C[N+](C)(C)CCO)OC (stereo not drawn)")
73
>>> measured_value("CCCCCCCCCCCCCCCCSCC(C[N+](C)(C)CCO)OCC (stereo not drawn)")
70
>>> measured_value("CCCCCCCCCCCCCCCCOCC(COCCO)OC (stereo not drawn)")
72
>>> measured_value("CC1(C)OC[C@@H](C[N+](C)(C)CCO)O1")
87

====

# target-system: Protein kinase C (PKC) (Homo sapiens) (UniProt O94806+P41743+P17252+P05129+Q05655+P05771+Q05513+Q02156+P24723+Q15139+Q04759)
# experiment-notes: Retained protein kinase C activity in the presence of 20 uM compound
# Format: functional
Classification field: enter rule met for Activity values not below 40%, rule not met for values below it.

>>> class_name("CC1(C)OC[C@@H](C[N+](C)(C)CCO)O1")
"rule met"
>>> class_name("CCCCCCCCCCCCCCCCCCSCC(C[N+](C)(C)CCCO)OC (stereo not drawn)")
"rule not met"
>>> class_name("CCCCCCCCCCCCCCCCOCC(COCCO)OC (stereo not drawn)")
"rule met"
>>> class_name("CCCCCCCCCCCCCCCCCC1OCC(C[N+](C)(C)CCCO)O1 (stereo not drawn)")
"rule not met"
>>> class_name("CCCCCCCCCCCCCCCCOCC(C[N+](C)(C)CCO)OC (stereo not drawn)")
"rule met"
>>> class_name("CCCCCCCCCCCCCCCCSCC(C[N+](C)(C)CCO)OCC (stereo not drawn)")
"rule met"
>>> class_name("CCCCCCCCCCCCCCCCSCC(C[N+](C)(C)CCO)OC (stereo not drawn)")
"rule met"
>>> class_name("CCCCCCCCCCCCCCCCSCC(C[N+](C)(C)CCCO)OCC (stereo not drawn)")
"rule met"
>>> class_name("CCCCCCCCCCCCCCCCOCC(COCC[N+](C)(C)C)OC (stereo not drawn)")
"rule met"
>>> class_name("CCCCCCCCCCCCCCCCSCC(C[N+](C)(C)C)OC (stereo not drawn)")
"rule met"
>>> class_name("COC(COc1cccc2ccccc12)C[N+](C)(C)CCO (stereo not drawn)")
"rule met"
>>> class_name("CCCCCCCCCCCCCCCCC[C@@H]1OC[C@@H](C[N+](C)(C)CCCO)O1")
"rule met"

====

Listed below: Activity values for each entry.
# target-system: Protein kinase C (PKC) (Homo sapiens) (UniProt O94806+P41743+P17252+P05129+Q05655+P05771+Q05513+Q02156+P24723+Q15139+Q04759)
# experiment-notes: Retained protein kinase C activity in the presence of 40 uM compound
# Assay type: functional
reported-property: Activity (%)

>>> measured_value("CCCCCCCCCCCCCCCCSCC(C[N+](C)(C)CCCO)OCC (centres undefined)")
37
>>> measured_value("CCCCCCCCCCCCCCCCOCC(C[N+](C)(C)CCO)OC (centres undefined)")
29
>>> measured_value("CCCCCCCCCCCCCCCCCCOCC(COP(=O)([O-])OCC[N+](C)(C)C)OC (centres undefined)")
29
>>> measured_value("CCCCCCCCCCCCCCCCOCC(COCCO)OC (centres undefined)")
43
